Provenance of the data: paper PMC11412156

# maps each entry to its IC50
system.under.test: HDAC3 (Homo sapiens)
Sequence (O15379 whole entry): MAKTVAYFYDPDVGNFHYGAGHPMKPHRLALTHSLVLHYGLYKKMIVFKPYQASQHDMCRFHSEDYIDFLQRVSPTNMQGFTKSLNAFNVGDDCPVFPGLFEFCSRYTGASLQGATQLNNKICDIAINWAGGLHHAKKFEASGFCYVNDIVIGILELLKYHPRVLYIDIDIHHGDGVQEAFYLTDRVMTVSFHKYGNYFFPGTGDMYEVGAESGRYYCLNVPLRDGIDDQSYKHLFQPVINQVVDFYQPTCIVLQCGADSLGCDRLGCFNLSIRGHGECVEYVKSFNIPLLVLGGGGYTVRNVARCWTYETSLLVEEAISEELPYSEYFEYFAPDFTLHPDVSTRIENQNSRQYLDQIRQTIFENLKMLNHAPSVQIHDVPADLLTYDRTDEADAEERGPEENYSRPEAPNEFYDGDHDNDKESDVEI
Sequence (Q9Y618 395-489 partner limits assumed): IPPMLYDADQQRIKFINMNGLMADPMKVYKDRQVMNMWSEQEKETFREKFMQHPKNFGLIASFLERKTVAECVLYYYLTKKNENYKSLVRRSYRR
measurement.description: HDAC enzyme-based fluorogenic assay, HDAC3
Type: biochemical
Report only the number, with the unit nM understood.

compound | system.under.test | IC50, nM
O=C(CCCCCCNC(=O)[C@H]1CCCN(C(=O)c2ccc(NC(=O)Nc3cc(F)cc(F)c3)c(F)c2)C1)NO [Compound 28j] | HDAC3 (Homo sapiens) | 2620

Data request, read-out IC50, for O=C(CCCCCCNC(=O)[C@H]1CCCN(C(=O)c2ccc(NC(=O)Nc3ccc(Cl)c(F)c3)c(F)c2)C1)NO [Compound 28g]
1280

* * *

system.under.test: HDAC2 (Homo sapiens)
Sequence (Q92769 whole entry): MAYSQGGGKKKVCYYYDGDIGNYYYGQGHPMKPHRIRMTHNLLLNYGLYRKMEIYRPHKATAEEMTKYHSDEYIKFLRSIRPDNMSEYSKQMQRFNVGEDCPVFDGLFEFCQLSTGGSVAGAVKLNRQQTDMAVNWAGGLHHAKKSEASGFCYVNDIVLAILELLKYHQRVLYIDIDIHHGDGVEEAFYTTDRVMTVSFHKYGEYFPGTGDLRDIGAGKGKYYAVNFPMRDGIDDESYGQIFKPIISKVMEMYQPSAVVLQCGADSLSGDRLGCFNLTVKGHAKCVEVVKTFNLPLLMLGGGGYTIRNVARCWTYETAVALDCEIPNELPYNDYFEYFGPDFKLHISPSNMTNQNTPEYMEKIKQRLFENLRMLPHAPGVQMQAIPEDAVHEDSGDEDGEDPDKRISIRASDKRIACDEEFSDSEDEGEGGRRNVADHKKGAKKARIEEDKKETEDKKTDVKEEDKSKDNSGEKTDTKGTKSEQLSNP
measurement.description: HDAC enzyme-based fluorogenic assay, HDAC2
Assay type: biochemical
readout.type: pIC50
Note on units: pIC50 is unitless, being -log10 of a concentration expressed in mol/L.

compound | pIC50
O=C(CCCCCCNC(=O)[C@H]1CCCN(C(=O)c2ccc(NC(=O)Nc3ccc(Cl)c(F)c3)c(F)c2)C1)NO [Compound 28g] | 6.31

Attention now shifts to the item below.
Data request, read-out pIC50, for O=C(CCCCCCNC(=O)[C@H]1CCCN(C(=O)c2ccc(NC(=O)Nc3cc(F)cc(F)c3)c(F)c2)C1)NO [Compound 28j]
5.97

* * *

# maps each entry to its IC50
system.under.test: HDAC6 (Homo sapiens)
measurement.description: HDAC enzyme-based fluorogenic assay, HDAC6
Format: biochemical
Provide a numeric answer, followed by its unit.

compound | IC50
O=C(CCCCCCNC(=O)[C@H]1CCCN(C(=O)c2ccc(NC(=O)Nc3cc(F)cc(F)c3)c(F)c2)C1)NO [Compound 28j] | 8 nM

Attention now shifts to the item below.
Data request, read-out IC50, for O=C(CCCCCCNC(=O)[C@H]1CCCN(C(=O)c2ccc(NC(=O)Nc3ccc(Cl)c(F)c3)c(F)c2)C1)NO [Compound 28g]
8 nM

* * *

# maps each entry to its AUC(0-t)
measurement.description: Pharmacokinetic study in rats
Format: in vivo, SD rats
experimental.context: both, Sprague-Dawley, rat, plasma, po, 50 mg/kg
Report only the number, with the unit µM·h understood.

compound | AUC(0-t) [µM·h]
O=C(CCCCCCNC(=O)[C@H]1CCCN(C(=O)c2ccc(NC(=O)Nc3ccc(Cl)c(F)c3)c(F)c2)C1)NO [Compound 28g] | 15

Data request, read-out AUC(0-t), for O=C(CCCCCCNC(=O)[C@H]1CCCN(C(=O)c2ccc(NC(=O)Nc3cc(F)cc(F)c3)c(F)c2)C1)NO [Compound 28j]
14.8

* * *

# maps each entry to its HDAC6 inhibitor rate
system.under.test: HDAC6 (Homo sapiens, UniProt Q9UBN7)
Sequence (Q9UBN7 whole entry): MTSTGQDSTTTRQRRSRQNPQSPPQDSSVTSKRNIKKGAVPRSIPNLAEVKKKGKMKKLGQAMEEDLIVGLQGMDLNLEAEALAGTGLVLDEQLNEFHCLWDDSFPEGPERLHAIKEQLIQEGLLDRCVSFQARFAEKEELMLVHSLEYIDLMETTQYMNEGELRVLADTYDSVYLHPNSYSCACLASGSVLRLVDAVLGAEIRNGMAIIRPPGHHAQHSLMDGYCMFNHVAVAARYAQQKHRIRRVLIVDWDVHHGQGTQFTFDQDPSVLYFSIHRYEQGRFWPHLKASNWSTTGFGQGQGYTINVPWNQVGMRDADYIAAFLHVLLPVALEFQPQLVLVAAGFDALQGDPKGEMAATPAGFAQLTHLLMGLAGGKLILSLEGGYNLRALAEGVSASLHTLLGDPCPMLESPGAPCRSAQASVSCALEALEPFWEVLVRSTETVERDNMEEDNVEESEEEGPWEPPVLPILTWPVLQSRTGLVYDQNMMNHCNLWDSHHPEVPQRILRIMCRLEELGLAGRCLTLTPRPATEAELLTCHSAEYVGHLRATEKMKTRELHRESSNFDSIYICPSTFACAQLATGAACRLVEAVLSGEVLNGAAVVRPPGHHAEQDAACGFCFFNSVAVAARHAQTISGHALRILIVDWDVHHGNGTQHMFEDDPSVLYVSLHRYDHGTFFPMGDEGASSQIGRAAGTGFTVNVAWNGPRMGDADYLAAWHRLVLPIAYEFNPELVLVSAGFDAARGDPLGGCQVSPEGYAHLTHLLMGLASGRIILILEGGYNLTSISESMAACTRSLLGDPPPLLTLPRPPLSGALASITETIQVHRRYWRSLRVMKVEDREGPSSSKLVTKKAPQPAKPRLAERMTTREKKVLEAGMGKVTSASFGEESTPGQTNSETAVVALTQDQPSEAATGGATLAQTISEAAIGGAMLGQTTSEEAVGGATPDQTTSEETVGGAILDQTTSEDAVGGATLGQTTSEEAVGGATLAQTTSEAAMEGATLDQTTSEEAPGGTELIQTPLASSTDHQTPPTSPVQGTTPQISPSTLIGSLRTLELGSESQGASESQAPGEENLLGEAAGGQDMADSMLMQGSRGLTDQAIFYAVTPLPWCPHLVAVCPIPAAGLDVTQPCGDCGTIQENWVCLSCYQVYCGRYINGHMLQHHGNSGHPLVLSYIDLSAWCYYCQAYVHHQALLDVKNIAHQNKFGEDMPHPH
measurement.description: HDAC enzyme-based fluorogenic assay, HDAC6
Type: biochemical
experimental.context: final concentration of 2 μM, preliminary screen

molecule | HDAC6 inhibitor rate
O=C(CCCCCCNC(=O)[C@H]1CCCN(C(=O)c2ccc(NC(=O)Nc3ccc(OC(F)(F)F)c(F)c3)c(F)c2)C1)NO [Compound 28a] | > 91%

Attention now shifts to the item below.
Data request, read-out HDAC6 inhibitor rate, for C[C@]12CC3CC(Nc4c(Nc5ccc(C(=O)N6CCC[C@H](C(=O)NCCCCCC(=O)NO)C6)cc5)c(=O)c4=O)(C1)C[C@@](C)(C3)C2 [Compound 40c]
98.49%
